test system: K562 CRISPRi cells; test: Constant region variant library pooled growth screen, K562; format: cell-based, human; settings: sgRNA constant region variants; relative to the original, un-modified constant region cr995; CRISPRi
// boundary case: Mean relative activity equal to 0.4 maps to NO; strictly smaller maps to YES

Please review the entries below; each comes with its answer.
molecule="cr620 (nucleic acid, listed as DNA, chemistry not fully specified) guide: GTTTAAGAGCTAAGCTGGAAACAGCATAGCAAGTTTAAATAAGGGTACTCCGTTATCAACTTGAAAAAGTGGAACTGAGTCAGTTCT" classification=NO
molecule="cr736 (nucleic acid, listed as DNA, chemistry not fully specified) guide: GTTTAAGAGCTAAGCTGGAAACAGCATAGCAAGATTAAATAAGGCTAGTCCGTTATCAACTTGAAAAAGTGGCACCGAGTCGGTGCA" classification=NO
molecule="cr175 (nucleic acid, listed as DNA, chemistry not fully specified) guide: GTTTAAGAGCTAAGCTGGAAACAGCATAGCAAGTTTAAATAAGGCTAGTCCGTTATCCACTTGAAAAAGTGGCACCGAGTCGGTGCT" classification=NO
molecule="cr856 (nucleic acid, listed as DNA, chemistry not fully specified) guide: GTTTAAGAGCTAAGCTGGAAACAGCATAGCAAGTTTAAATAAGGATATTCCGTTATCAAATTGAAAAATTGGCTCCGAGTCGGAGCT" classification=YES
molecule="cr265 (nucleic acid, listed as DNA, chemistry not fully specified) guide: GTTTAAGAGCTAAGCTGGAAACAGCATAGCAAGTTTAAATAAGGTTAGTCCGTTATCAACTTGAAAAAGTGGCACCGAGTCGGTGCT" classification=NO
molecule="cr493 (nucleic acid, listed as DNA, chemistry not fully specified) guide: GTTTAAGAGCTAAGCTGGAAACAGCATAGCAAGTTTAAATAAGGCTAGCCCGTTACAAACTTGAAAAAGTGGCACCGAGTCGGTGCT" classification=NO
molecule="cr369 (nucleic acid, listed as DNA, chemistry not fully specified) guide: GTTTAAGAGCTAAGCTGGAAACAGCATAGCAAGTTTAAATAAGGCTAGTCCGTTATCAAATTGAAAAAGTGGCACCGAGTCGGTGCT" classification=NO
molecule="cr200 (nucleic acid, listed as DNA, chemistry not fully specified) guide: GTTTAAGAGCTAAGCTGGAAACAGCATAGCAAATTTAAATAAGGCTAGTCCGTTATCAACTTGAAAAAGTGGCACCGAGTCGGTGCC" classification=YES
molecule="cr755 (nucleic acid, listed as DNA, chemistry not fully specified) guide: GTTTAAGAGCTAAGCTGGAAACAGCATAGCAAGCTTAAATAAGGCTAGTCCGTTATCAACTTGAAAAAGTGGCTCCGAGTCGGAGCT" classification=YES
molecule="cr163 (nucleic acid, listed as DNA, chemistry not fully specified) guide: GTTTAAGAGCTAAGCTGGAAACAGCATAGCAAGCTTAAATAAGGCTAGTCCGTTATCAACTTGAAAAAGTGGCACCGAGTCGGTGCT" classification=NO

Is 0.4 strictly greater than the molecule's reported Mean relative activity? molecule: cr192 (nucleic acid, listed as DNA, chemistry not fully specified) guide: GTTTAAGAGCTAAGCTGGAAACAGCATAGCAAGTTTAAATAAGGCTAGTCCGTTATCAACTTGAAAAAGTGGCCCCCAGTGGGGGCT
YES

# check: Mean relative activity < 0.4 for cr634 (nucleic acid, listed as DNA, chemistry not fully specified) guide: GTTTAAGAGCTAAGCTGGAAACAGCATAGCAGGTTTAAATAAGGCTAGTCCGTTATCGACTTGAAAAAGTGGCACCGAGTCGGTGCT
YES
